Listed here: items and their measured F.
Settings: oral 50 mg/kg versus intravenous 10 mg/kg, SD rats

molecule	F (%)
CN1CC[C@]23c4c5ccc(O)c4O[C@H]2[C@@H](OCCOCCOCCOCCOCCOCCOCCOCCO[C@H]2C=C[C@H]4[C@H]6Cc7ccc(O)c8c7[C@@]4(CCN6C)[C@H]2O8)C=C[C@H]3[C@H]1C5 [α-6-O-PEG8-(morphine)2]	7.6
CN1CC[C@]23c4c5ccc(O)c4O[C@H]2[C@@H](OCCOCCOCCO[C@H]2C=C[C@H]4[C@H]6Cc7ccc(O)c8c7[C@@]4(CCN6C)[C@H]2O8)C=C[C@H]3[C@H]1C5 [α-6-O-PEG3-(morphine)2]	3.2
CN1CC[C@]23c4c5ccc(O)c4O[C@H]2[C@@H](OCCOCCOCCOCCOCCOCCO[C@H]2C=C[C@H]4[C@H]6Cc7ccc(O)c8c7[C@@]4(CCN6C)[C@H]2O8)C=C[C@H]3[C@H]1C5 [α-6-O-PEG6-(morphine)2]	21.2
CN1CC[C@]23c4c5ccc(O)c4O[C@H]2[C@@H](OCCOCCO[C@H]2C=C[C@H]4[C@H]6Cc7ccc(O)c8c7[C@@]4(CCN6C)[C@H]2O8)C=C[C@H]3[C@H]1C5 [α-6-O-PEG2-(morphine)2]	4.8

----------
Conditions: oral administration, 50 mg/kg, SD rats
Each entry gets n if its AUClast stays under 30 ng·h/mL, and y if its AUClast is 30 ng·h/mL or above.

smiles.input	category.label
CN1CC[C@]23c4c5ccc(O)c4O[C@H]2[C@@H](OCCOCCO[C@H]2C=C[C@H]4[C@H]6Cc7ccc(O)c8c7[C@@]4(CCN6C)[C@H]2O8)C=C[C@H]3[C@H]1C5	n
CN1CC[C@]23c4c5ccc(O)c4O[C@H]2[C@@H](OCCOCCOCCOCCO[C@H]2C=C[C@H]4[C@H]6Cc7ccc(O)c8c7[C@@]4(CCN6C)[C@H]2O8)C=C[C@H]3[C@H]1C5	y
CN1CC[C@]23c4c5ccc(O)c4O[C@H]2[C@@H](OCCO[C@H]2C=C[C@H]4[C@H]6Cc7ccc(O)c8c7[C@@]4(CCN6C)[C@H]2O8)C=C[C@H]3[C@H]1C5	y
CN1CC[C@]23c4c5ccc(O)c4O[C@H]2[C@@H](OCCOCCOCCOCCOCCOCCOCCOCCO[C@H]2C=C[C@H]4[C@H]6Cc7ccc(O)c8c7[C@@]4(CCN6C)[C@H]2O8)C=C[C@H]3[C@H]1C5	n
CN1CC[C@]23c4c5ccc(O)c4O[C@H]2[C@@H](OCCOCCOCCO[C@H]2C=C[C@H]4[C@H]6Cc7ccc(O)c8c7[C@@]4(CCN6C)[C@H]2O8)C=C[C@H]3[C@H]1C5	n

----------
Tested on: ICR mice
Details: mouse, in vivo, iv, 10 mg/kg

compound	Number of Writhing
CN1CC[C@]23c4c5ccc(O)c4O[C@H]2[C@@H](OCCOCCOCCOCCOCCOCCO[C@H]2C=C[C@H]4[C@H]6Cc7ccc(O)c8c7[C@@]4(CCN6C)[C@H]2O8)C=C[C@H]3[C@H]1C5	24.3
CN1CC[C@]23c4c5ccc(O)c4O[C@H]2[C@@H](OCCOCCOCCOCCO[C@H]2C=C[C@H]4[C@H]6Cc7ccc(O)c8c7[C@@]4(CCN6C)[C@H]2O8)C=C[C@H]3[C@H]1C5	20.1
COCCOCCOCCOCCO[C@H]1C=C[C@H]2[C@H]3Cc4ccc(O)c5c4[C@@]2(CCN3C)[C@H]1O5 [α-6-O-mPEG4-morphine, reference compound]	12.1
COCCOCCOCCOCCOCCOCCO[C@H]1C=C[C@H]2[C@H]3Cc4ccc(O)c5c4[C@@]2(CCN3C)[C@H]1O5 [α-6-O-mPEG6-morphine, reference compound]	15.3

----------
Listed here: items and their measured level at 3 h.
Test: in vivo
Conditions: female, SD, rat, iv, 5 mg/kg
recorded.metric: level at 3 h (ng/mL)

smiles.input	reported.value
CN1CC[C@]23c4c5ccc(O)c4O[C@H]2[C@@H](OCCOCCO[C@H]2C=C[C@H]4[C@H]6Cc7ccc(O)c8c7[C@@]4(CCN6C)[C@H]2O8)C=C[C@H]3[C@H]1C5	43
CN1CC[C@]23c4c5ccc(O)c4O[C@H]2[C@@H](OCCOCCOCCO[C@H]2C=C[C@H]4[C@H]6Cc7ccc(O)c8c7[C@@]4(CCN6C)[C@H]2O8)C=C[C@H]3[C@H]1C5	32
CN1CC[C@]23c4c5ccc(O)c4O[C@H]2[C@@H](OCCOCCOCCOCCO[C@H]2C=C[C@H]4[C@H]6Cc7ccc(O)c8c7[C@@]4(CCN6C)[C@H]2O8)C=C[C@H]3[C@H]1C5	42

----------
Listed here: items and their measured AUClast.
Details: intravenous administration, 10 mg/kg, SD rats
recorded.metric: AUClast (ng·h/mL)

smiles.input	recorded.metric	reported.value
CN1CC[C@]23c4c5ccc(O)c4O[C@H]2[C@@H](OCCOCCO[C@H]2C=C[C@H]4[C@H]6Cc7ccc(O)c8c7[C@@]4(CCN6C)[C@H]2O8)C=C[C@H]3[C@H]1C5	AUClast	90
CN1CC[C@]23c4c5ccc(O)c4O[C@H]2[C@@H](OCCOCCOCCOCCO[C@H]2C=C[C@H]4[C@H]6Cc7ccc(O)c8c7[C@@]4(CCN6C)[C@H]2O8)C=C[C@H]3[C@H]1C5	AUClast	122
CN1CC[C@]23c4c5ccc(O)c4O[C@H]2[C@@H](OCCOCCOCCOCCOCCOCCO[C@H]2C=C[C@H]4[C@H]6Cc7ccc(O)c8c7[C@@]4(CCN6C)[C@H]2O8)C=C[C@H]3[C@H]1C5	AUClast	144
CN1CC[C@]23c4c5ccc(O)c4O[C@H]2[C@@H](OCCO[C@H]2C=C[C@H]4[C@H]6Cc7ccc(O)c8c7[C@@]4(CCN6C)[C@H]2O8)C=C[C@H]3[C@H]1C5	AUClast	83
CN1CC[C@]23c4c5ccc(O)c4O[C@H]2[C@@H](OCCOCCOCCO[C@H]2C=C[C@H]4[C@H]6Cc7ccc(O)c8c7[C@@]4(CCN6C)[C@H]2O8)C=C[C@H]3[C@H]1C5	AUClast	104
CN1CC[C@]23c4c5ccc(O)c4O[C@H]2[C@@H](OCCOCCOCCOCCOCCOCCOCCOCCO[C@H]2C=C[C@H]4[C@H]6Cc7ccc(O)c8c7[C@@]4(CCN6C)[C@H]2O8)C=C[C@H]3[C@H]1C5	AUClast	162
CN1CC[C@]23c4c5ccc(O)c4O[C@H]2[C@@H](OCCOCCOCCOCCOCCOCCOCCOCCOCCO[C@H]2C=C[C@H]4[C@H]6Cc7ccc(O)c8c7[C@@]4(CCN6C)[C@H]2O8)C=C[C@H]3[C@H]1C5	AUClast	221
CN1CC[C@]23c4c5ccc(O)c4O[C@H]2[C@@H](OCCOCCOCCOCCOCCO[C@H]2C=C[C@H]4[C@H]6Cc7ccc(O)c8c7[C@@]4(CCN6C)[C@H]2O8)C=C[C@H]3[C@H]1C5	AUClast	109

----------
Listed here: items and their measured CL.
Conditions: intravenous administration, 10 mg/kg, SD rats
recorded.metric: CL (mL/min/k g)

smiles.input	recorded.metric	reported.value
CN1CC[C@]23c4c5ccc(O)c4O[C@H]2[C@@H](OCCOCCOCCOCCOCCOCCOCCOCCO[C@H]2C=C[C@H]4[C@H]6Cc7ccc(O)c8c7[C@@]4(CCN6C)[C@H]2O8)C=C[C@H]3[C@H]1C5	CL	221
CN1CC[C@]23c4c5ccc(O)c4O[C@H]2[C@@H](OCCOCCO[C@H]2C=C[C@H]4[C@H]6Cc7ccc(O)c8c7[C@@]4(CCN6C)[C@H]2O8)C=C[C@H]3[C@H]1C5	CL	307
CN1CC[C@]23c4c5ccc(O)c4O[C@H]2[C@@H](OCCOCCOCCO[C@H]2C=C[C@H]4[C@H]6Cc7ccc(O)c8c7[C@@]4(CCN6C)[C@H]2O8)C=C[C@H]3[C@H]1C5	CL	296
CN1CC[C@]23c4c5ccc(O)c4O[C@H]2[C@@H](OCCOCCOCCOCCOCCO[C@H]2C=C[C@H]4[C@H]6Cc7ccc(O)c8c7[C@@]4(CCN6C)[C@H]2O8)C=C[C@H]3[C@H]1C5	CL	261
CN1CC[C@]23c4c5ccc(O)c4O[C@H]2[C@@H](OCCO[C@H]2C=C[C@H]4[C@H]6Cc7ccc(O)c8c7[C@@]4(CCN6C)[C@H]2O8)C=C[C@H]3[C@H]1C5	CL	342
CN1CC[C@]23c4c5ccc(O)c4O[C@H]2[C@@H](OCCOCCOCCOCCO[C@H]2C=C[C@H]4[C@H]6Cc7ccc(O)c8c7[C@@]4(CCN6C)[C@H]2O8)C=C[C@H]3[C@H]1C5	CL	238
CN1CC[C@]23c4c5ccc(O)c4O[C@H]2[C@@H](OCCOCCOCCOCCOCCOCCOCCOCCOCCO[C@H]2C=C[C@H]4[C@H]6Cc7ccc(O)c8c7[C@@]4(CCN6C)[C@H]2O8)C=C[C@H]3[C@H]1C5	CL	166
CN1CC[C@]23c4c5ccc(O)c4O[C@H]2[C@@H](OCCOCCOCCOCCOCCOCCO[C@H]2C=C[C@H]4[C@H]6Cc7ccc(O)c8c7[C@@]4(CCN6C)[C@H]2O8)C=C[C@H]3[C@H]1C5	CL	204

Values compiled from patent EP3409295A1.
